# System: DU-145 prostate
# experiment: NCI tumour cell line growth inhibition, 48 h
recorded_endpoint: TGI

CCCCN(CCCC)CCc1c(C)cc(C)c(CCN(CCCC)CCCC)c1O    > 100 µM
CC(C)(Cc1ccccc1)N1C(=O)N1C(C)(C)Cc1ccccc1    > 100 µM
O=[N+]([O-])c1ccc2nc(/C=C(\O)c3ccc(Cl)cc3)c(/C=C(\O)c3ccc(Cl)cc3)nc2c1    > 100 µM

----------
# System: SF-268 CNS
# experiment: NCI tumour cell line growth inhibition, 48 h; in the data active means GI50 below about 0.43 µM; inactive means the rest
Outcome codes: T for active, F for inactive

C[C@]12CC[C@@H](OC(=O)N(CCCl)N=O)C[C@@H]1CC[C@@H]1[C@@H]2CC[C@]2(C)C(=O)CC[C@@H]12    F
CC(=O)c1cc(-c2ccccc2N)n(-c2ccc3c(c2)OCO3)c1C    T
CCCCNC(=O)Oc1ccc(/C(=C(/CC)Cc2ccccc2)c2ccc(OCCN3CCCCCC3)cc2)cc1    F
CC[C@]1(O)C[C@@H]2CN(CCc3c([nH]c4ccccc34)[C@@](C(=O)OC)(c3cc4c(cc3OC)N(C)[C@H]3[C@@](O)(C(N)=O)[C@H](O)[C@]5(CC)[C@@H]6C[C@@H]6CN6CC[C@]43[C@@H]65)C2)C1    T
COC(=O)c1ccc(CN2C(=O)C(Cl)=C(Nc3ccc(OC)c(Cl)c3)C2=O)cc1    F
CCC1(OC(=O)CN)C(=O)OCc2c1cc1n(c2=O)Cc2cc3cc4c(cc3nc2-1)OCO4 (stereo unspecified)    T
CCCCN(CCCC)CCc1c(C)cc(C)c(CCN(CCCC)CCCC)c1O    F
CCOC(=O)Nc1nc2cc(OCC)ccc2s1    F
COc1ccc([C@@H](O)c2cc(-c3ncnc4cc(N5CCOCC5)ccc34)c(F)cc2Cl)nn1    F
CC12CC=CCC1CCC1C2CCC2(C)C(c3ccc(=O)oc3)CCC12O (stereo unspecified)    T
CC[C@H](Nc1nc(N)nc(C2CC2)c1C#N)c1nc2cccc(NCc3ccc(C(=O)NO)cc3)c2c(=O)n1-c1ccccc1    F

----------
# Test system: HCT-116 colon
# experiment: NCI tumour cell line growth inhibition, 48 h
recorded_endpoint: TGI

CN1C(=O)C2C=CC1C1CCC2N(C)C1=O (stereo not drawn)    > 100 µM
O=C(CSc1nc(-c2ccccc2)c(-c2ccccc2)[nH]1)NNC(=S)Nc1ccccc1    > 100 µM
COC(=O)c1cc(C)ccc1/C=C1\Cc2c(C)cc(C)cc2C1=O    > 100 µM

----------
# Test system: UACC-257 melanoma
# experiment: NCI tumour cell line growth inhibition, 48 h
recorded_endpoint: TGI

CC(=Nc1cc(Cl)cc(Cl)c1)c1ccncc1    > 100 µM
CCN1CCCn2c(=O)[nH]c3cc(Br)cc1c32    > 100 µM
CC(=O)c1cccc(-c2cccc(-c3ccn(CCN4CCOCC4)n3)c2)c1    > 20 µM
CC(C#N)N(CCc1ccccc1)C(=O)c1ccccc1 (centres undefined)    > 100 µM
COc1cc(C2c3cc4c(cc3[C@@H](N(C)C)[C@H]3COC(=O)C23)OCO4)cc(OC)c1O (some centres undefined)    > 100 µM
CC[C@]1(O)C[C@@H]2CN(CCc3c([nH]c4ccccc34)[C@@](C(=O)OC)(c3cc4c(cc3OC)N(C)[C@H]3[C@@](O)(C(N)=O)[C@H](O)[C@]5(CC)[C@@H]6C[C@@H]6CN6CC[C@]43[C@@H]65)C2)C1    > 33.3 µM
O=C(O)Cc1ccccc1CCc1ccccc1Cl    > 100 µM
Clc1ccc(-c2c(C3=NCCN3)nnn2-c2ccccc2)cc1    > 100 µM
O=c1nc2ccc3sc4ccccc4c(=O)c3n2c(=O)[nH]1    > 100 µM

----------
Recorded TGI by entry
# Test system: EKVX NSCLC
# experiment: NCI tumour cell line growth inhibition, 48 h
recorded_endpoint: TGI

O=c1[nH]c2cc([N+](=O)[O-])c(Nc3c4ccccc4nc4ccccc34)c([N+](=O)[O-])c2[nH]1    7.47 µM
CSc1nsc(S/C=C\C(=O)c2ccc(C)cc2)n1    49.7 µM
O=c1nc2ccc3sc4ccccc4c(=O)c3n2c(=O)[nH]1    > 100 µM
NC(=S)N/N=C1\CCCC1C(O)(C(F)(F)Cl)C(F)(F)Cl (centres undefined)    > 10 µM
Nc1ccc2c(c1)NC(=O)[C@@H]1CCCN1C2=O    > 100 µM
CCN(CC)CCOc1c(OC)c(Br)cc2c(C)c(C(=O)OC)oc12    5.01 µM
C[C@]12CCC(=O)C=C1CC[C@@H]1[C@@H]2[C@@H](O)C[C@@]2(C)[C@H]1CC[C@]2(O)C(=O)COC(=O)CCC1CCCC1    > 100 µM
CCCCNC(=O)Oc1ccc(/C(=C(/CC)Cc2ccccc2)c2ccc(OCCN3CCCCCC3)cc2)cc1    > 100 µM
O=C(O)COc1cc(-c2ccccc2)nc2ccccc12    > 100 µM
NC1c2c(Cl)sc(Cl)c2C(=O)C1O (centres undefined)    57.6 µM
CC(C)(CN1CCCCC1)C(/C=C/c1ccccc1)=N\NC(=O)N/N=C(/C=C/c1ccccc1)C(C)(C)CN1CCCCC1    20.7 µM
O=c1c(O)cccn1C1OC(CO)C(O)C1O (centres undefined)    > 100 µM
CS(=O)(=O)[O-].CS(=O)(=O)[O-].NC1CCCCC1N.[Pt+4] (centres undefined)    > 100 µM
O=[N+]([O-])c1ccc2c(c1)n1c(N3CCCC3)[n+]3ccccc3c1c1c3cccc[n+]3c(N3CCCC3)n21    > 100 µM

----------
Below is a list of entries, each paired with its recorded TGI value.
# Test system: HCT-116 colon
# experiment: NCI tumour cell line growth inhibition, 48 h
recorded_endpoint: TGI

CC1=NN2C(=N)/C(=C/c3ccccc3)C(=O)N=C2S1    > 100 µM
[N-]=[N+]=CC(=O)COC(=O)c1ccccc1    > 100 µM
COc1cc2c(c(OC)c1OC)-c1ccc(O)c(=O)cc1[C@@H](NC(C)=O)CC2    > 100 µM
O=[N+]([O-])c1cc(F)ccc1Sc1ccccc1    > 10 µM
C=CCc1ccccc1C1CC2(C(=O)OC)OC1C(C(=O)OC)=C2C(=O)OC (configuration not stated)    > 10 µM
COC(=O)[C@](C)(Cc1ccccc1)NC(=O)[C@@H](C)N1[C@@H](c2ccccc2)COC1(C)C    > 100 µM
O=[N+]([O-])c1ccc2c(c1)n1c(N3CCCC3)[n+]3ccccc3c1c1c3cccc[n+]3c(N3CCCC3)n21    > 100 µM

----------
# Tested on: SF-295 CNS
# experiment: NCI tumour cell line growth inhibition, 48 h
Readings of TGI for the listed molecules
recorded_endpoint: TGI

CC(=O)Nc1ccc(/C=C2/NC(=S)N(/C=C3\C(=O)Oc4ccccc4C3=O)C2=O)cc1    > 100 µM
Clc1ccc(-c2c(C3=NCCN3)nnn2-c2ccccc2)cc1    > 100 µM
O=P(O)(O)C=C=C1CCCCC1    > 100 µM
Cc1nc2c(n1-c1ccccc1)C(=O)c1ccccc1C2=O    > 100 µM
N#C/C(C(=O)Nc1ccccc1)=C(/N)N1CCCCC1    > 100 µM
COc1ccccc1NC(=S)N/N=C/c1ccccn1    > 31.6 µM
CC1(O)CCC2(C)C(=O)C1(C)CCC21OCCO1 (stereo unspecified)    > 100 µM
NC(=O)c1csc(C2CCC(CO)O2)n1 (stereo unspecified)    > 100 µM
COC(=O)C(=O)C(C(=O)C(N)=O)c1nc2ccc(C(=O)c3ccccc3)cc2[nH]c1=O (stereo unspecified)    > 100 µM
CC1(C)C=[N+]([O-])C(C)(C)N1O    > 10 µM
Cc1nc2cccc(F)c2c(=O)n1-c1nnc(C(F)(F)F)s1    > 10 µM

----------
Reported TGI is given for each of the following molecules.
# System: ACHN renal
# experiment: NCI tumour cell line growth inhibition, 48 h
recorded_endpoint: TGI

CC(=Nc1cc(Cl)cc(Cl)c1)c1ccncc1    > 100 µM
CC1(C)C=[N+]([O-])C(C)(C)N1O    > 10 µM
COc1cc(C)cc2c(-c3c(O)cc(O)c4c3C[C@H](C)N[C@H]4C)cc(-c3cc(-c4c(O)cc(O)c5c4C[C@H](C)N[C@H]5C)c4cc(C)cc(OC)c4c3O)c(O)c12    > 100 µM
Cc1c(C#N)c(=N)oc2ccccc12    > 100 µM
O=c1oc2cccnc2n1CCCCN1CCN(c2ccccc2)CC1    > 100 µM
C=C(CCOC)CCC1CCCCC(=C)[C@H]1O (stereo partly drawn)    > 100 µM
Cc1ccc2sc3ccc(N)cc3c(=O)c2c1    > 100 µM
[N-]=[N+]=CC(=O)COC(=O)c1ccccc1    > 100 µM
N#C/C(=C1/c2cc([N+](=O)[O-])ccc2-c2c1cc([N+](=O)[O-])cc2[N+](=O)[O-])N1CCCCC1    > 100 µM
CCOC(=O)c1c(N)sc2c1C(C(=O)OCC)CCC2 (stereo not drawn)    > 100 µM
CCOC(=O)Cc1csc(N=Nc2c(O)[nH]c3ccccc23)n1    > 100 µM
COC(=O)[C@](C)(Cc1ccccc1)NC(=O)[C@@H](C)N1[C@@H](c2ccccc2)COC1(C)C    > 100 µM
COc1nc(C)cc2c(=O)n(-c3ccccc3)n(CC(O)CN3CCN(c4ccc(Cl)cc4)CC3)c(=O)c12 (stereo not drawn)    > 50 µM

Where do these numbers come from? They come from PubChem BioAssay (NCI).
